system: MDA-MB-435 melanoma; assay: NCI-60 one-dose screen, 48 h (100 = growth as untreated, 0 = no growth, -100 = all killed); conditions: 10 µM unless noted
About 83,000 compounds went through this panel and 20% of them were active in at least one assay; those are over-represented in the sample as a whole.
Reported growth by item:
VALUE_TYPE: growth (%)

* O=C(CC1(O)C(=O)Nc2ccc(Br)cc21)c1ccc(C(=O)NCC2CCC3(CC2)OOC2(CCCCC2)OO3)cc1 (configuration not stated) | 36.1
* CCC1(C(C)C)C(=O)NC(=S)NC1=O | 101
* CC1(C)C(C(=O)c2cn(CCCCF)c3ccccc23)C1(C)C | 108
* C/C(=C\c1ccn(-c2ccccc2N)n1)[C@@H]1C[C@@H]2O[C@]2(C)CCC[C@H](C)[C@H](O)[C@@H](C)C(=O)C(C)(C)[C@@H](O)CC(=O)O1 | -46.6
* ClCCN(CCCl)c1nc(Cl)c(C2CC(c3ccccc3)=NN2c2cc(Cl)cc(Cl)c2)s1 (configuration not stated) | 109
* O=C(O)C(O)C(O)C1[O][Sb]([c]2ccc([N+](=O)[O-])cc2)[O]C1CO (configuration not stated) | 107
* O=C(CCCCCCC(=O)Nc1ccc(N(CCCl)CCCl)cc1)NO | 45.1
* Cc1c2cc(Cl)c3ccccc3c2c[n+]2ccccc12 | 64.9
* CCOC(=O)[C@@H](C)C[C@H](Cc1ccccc1)NC(=O)c1csc([C@@H](C[C@H](C(C)C)N(C)C(=O)[C@@H](NC(=O)[C@H]2CCCCN2C)C(C)(C)CC)OC(C)=O)n1 | -60.8
* CC(CC1CCCCC1)NCc1ccccc1 (configuration not stated) | 103
* O=C(NCCN1CC1)C(=O)NCCN1CC1 | 106
* Cc1cccc(N2CCN(C(C)C#N)CC2)c1 (configuration not stated) | 98.4
* COc1ccc(N(CC(=O)NCCC[Te]c2ccccc2)C(=O)CNC(=O)OC(C)(C)C)cc1 | 59.4
* CC(=O)C(c1c(O)c2ccccc2oc1=O)c1cc(=O)oc2c1ccc1ccccc12 (configuration not stated) | 103
* CCCCN(CCCC)P(=O)(Oc1ccccc1)Oc1ccccc1 | 71.4
* CCCCCCCCC(CO)NCCc1ccccc1 (configuration not stated) | 103
* CC1[C@H](C)OC(=O)CC(O)CC(O)CC(O)CCC(O)C(O)C[C@]2(O)CC(O)C(C(=O)O)C(CC(OC3O[C@H](C)[C@@H](O)[C@H](N)[C@@H]3O)/C=C/C=C/C=C/C=C/CC/C=C/C=C/[C@H](C)[C@H]1O)O2 (some centres not stated) | 102
* C1CCC2(CC1)OOCNCOO2 | 101
* CCCCCCCC(=O)OCC(=O)[C@]1(O)Cc2c(O)c3c(c(O)c2[C@@H](OC2CC(N)C(O)C(C)O2)C1)C(=O)c1c(OC)cccc1C3=O (some centres not stated) | -80.5
* CC(=O)O[C@H]1C(=O)[C@@]2(C)[C@H]([C@H](OC(=O)c3ccccc3)[C@]3(O)C[C@H](OC(=O)[C@H](OC(=O)OC[C@H]4COC(C)(C)O4)[C@@H](NC(=O)c4ccccc4)c4ccccc4)C(C)=C1C3(C)C)[C@]1(OC(C)=O)CO[C@@H]1C[C@@H]2O | -73.7
* CCCCCCCCCCCCCCCCCC1OC[C@@H](COC(=O)O[C@@H](C(=O)O[C@H]2C[C@@]3(O)[C@@H](OC(=O)c4ccccc4)[C@@H]4[C@]5(OC(C)=O)CO[C@@H]5C[C@H](O)[C@@]4(C)C(=O)[C@H](OC(C)=O)C(=C2C)C3(C)C)[C@@H](NC(=O)c2ccccc2)c2ccccc2)O1 (some centres not stated) | -41.2
* CCCCCCCCCCCCCC[P+](CCCCCC)(CCCCCC)CCCCCC | -81
* C[C@]12CC[C@H]3[C@@H](CC[C@]4(O)C[C@@H](O[C@@H]5O[C@H](CO)[C@@H](O[C@@H]6OC[C@@H](O)[C@H](O)[C@H]6O)[C@H](O)[C@H]5O)CC[C@]34C=O)[C@@]1(O)CC[C@@H]2C1=CC(=O)OC1 | 16.9
* C=CC[PH+](c1ccccc1)c1ccccc1.C=CC[PH+](c1ccccc1)c1ccccc1.[Cl][Pt][Cl] | 64.9
* CC[C@H](C)[C@@H]([C@@H](CC(=O)N1CCC[C@H]1[C@H](OC)[C@@H](C)C(=O)N[C@H](C)[C@@H](O)c1ccccc1)OC)N(C)C(=O)[C@@H](NC(=O)[C@@H](NC)C(C)C)C(C)C | 2.42
* COC(=O)[C@@H](C)C[C@H](Cc1ccccc1)NC(=O)c1csc([C@@H](C[C@H](C(C)C)N(C)C(=O)[C@@H](NC(=O)[C@H]2CCCN2C)C2CC2)OC(C)=O)n1 | -20.6
* Cc1c(NS(=O)(=O)c2ccccc2)ccc([N+](=O)[O-])c1Cl | 39.8

All figures here come from PubChem BioAssay (NCI).
